EXPERIMENT SUMMARY: Normal rat biodistribution
Type: in vivo
EXPERIMENTAL CONTEXT: 60 min post-injection, i.v., male Wistar rats, Mean±SD n=3
// reported % ID Heart per item

INSERT INTO assay_data (compound, value_reported) VALUES
  ('CC(=NO)C(C)(C)NCC(C)(CNC(=O)CCCCCN)CNC(C)(C)C(C)=NO (stereo not drawn) [Compound 4]', '0.02 + 0.02 % ID'),
  ('NCCCCCNS(=O)(=O)c1ccc(C(=O)NCCCNC(=O)c2ccc(NN)nc2)cc1 [Compound 24]', '0.06 + 0.03 % ID'),
  ('CC(=NO)C(C)(C)NCCN(CCNC(=O)C1CCC(CNC(=O)c2ccc(S(=O)(=O)NCCCCCN)cc2)CC1)CCNC(C)(C)C(C)=NO (stereo not drawn) [Compound 17]', '0.07 + 0.02 % ID');

query: Which % ID Heart is listed for CC(CNCc1ccccc1O)(CNCc1ccccc1O)CNC(=O)c1ccc(S(=O)(=O)NCCCCCN)cc1 [Compound 25] ?
result: 0.08 + 0.03 % ID

query: Consider the compound CC(=NO)C(C)(C)NCCN(CCNC(=O)c1ccc(S(=O)(=O)NCCCCCN)cc1)CCNC(C)(C)C(C)=NO [Compound 16] and give its measured % ID Heart.
result: 0.01 ± 0.01 % ID

query: Quick one: % ID Heart of CC(=NO)C(C)(C)NCC(C)(CNC(=O)C1CCC(CNC(=O)c2ccc(S(=O)(=O)NCCCCCN)cc2)CC1)CNC(C)(C)C(C)=NO (stereo not drawn) [Compound 8] ?
result: 0.03 ± 0.01 % ID
